molecular target: porcine calpain-1 (Sus scrofa, UniProt P04574)
Where a SMILES comes first, the peptide text is derived from it. [ ]: non-standard residue; d: D form. The star is where a group is joined. 5FAM = O=C1OC2(c3ccc(O)cc3Oc3cc(O)ccc32)c2ccc(C(=O)*)cc21; Abu = CC[C@H](N)C(=O)O; βAla = NCCC(=O)O
MEASURED PROPERTY: pKd
Quick note: pKd means taking -log10 of the concentration in moles per liter.

Req: Dear colleague, please send me the reported pKd for CC[C@H](NC(=O)[C@H](CC(C)C)NC(=O)[C@H](C)NC(=O)[C@H](CC(=O)O)NC(=O)[C@@H](NC(=O)[C@H](C)NC(=O)[C@H](CC(=O)O)NC(=O)[C@H](CC(=O)O)NC(=O)[C@@H]1CCCN1C(=O)CCNC(=O)c1ccc2c(c1)C(=O)OC21c2ccc(O)cc2Oc2cc(O)ccc21)[C@@H](C)CC)C(=O)N[C@@H](CC(=O)O)C(=O)N[C@@H](CC(=O)O)C(=O)N[C@@H](Cc1ccccc1)C(=O)N[C@H](C(=O)N[C@@H](CO)C(N)=O)[C@@H](C)O [ABU (5FAM)] ({5FAM-βAla}-PDDAIDAL[Abu]DDFTS-NH2) when you can.
Resp: 5.24

---

Target: porcine calpain-1 (Sus scrofa, UniProt P04574)
Sequence (P04574 94-266 limits assumed): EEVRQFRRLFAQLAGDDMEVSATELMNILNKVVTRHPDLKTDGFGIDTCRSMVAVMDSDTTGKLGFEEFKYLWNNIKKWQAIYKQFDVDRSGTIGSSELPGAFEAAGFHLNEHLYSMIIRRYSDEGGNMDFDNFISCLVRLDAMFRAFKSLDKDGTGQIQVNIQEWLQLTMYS
Where a SMILES comes first, the peptide text is derived from it. [ ]: non-standard residue; d: D form. The star is where a group is joined. 5FAM = O=C1OC2(c3ccc(O)cc3Oc3cc(O)ccc32)c2ccc(C(=O)*)cc21; hSer = N[C@@H](CCO)C(=O)O; Nva = CCC[C@H](N)C(=O)O; βAla = NCCC(=O)O
Kindly supply the reported Kd values for the records listed here.
Value expressed in µM; do not type the unit.

Req: Dear colleague, please send me the reported Kd for CC[C@H](C)[C@H](NC(=O)[C@H](C)NC(=O)[C@H](CC(=O)O)NC(=O)[C@H](CC(=O)O)NC(=O)[C@@H]1CCCN1C(=O)CCNC(=O)c1ccc2c(c1)C(=O)OC21c2ccc(O)cc2Oc2cc(O)ccc21)C(=O)N[C@@H](CC(=O)O)C(=O)N[C@@H](C)C(=O)N[C@@H](CC(C)C)C(=O)N[C@@H](CO)C(=O)N[C@@H](CC(=O)O)C(=O)N[C@@H](CC(=O)O)C(=O)N[C@@H](Cc1ccccc1)C(=O)N[C@H](C(=O)N[C@@H](CO)C(N)=O)[C@@H](C)O [WT (5FAM), reference compound] ({5FAM-βAla}-PDDAIDALSDDFTS-NH2) when you can.
Resp: 6.6

Req: Dear colleague, please send me the reported Kd for CC[C@H](C)[C@H](NC(=O)[C@H](C)NC(=O)[C@H](CC(=O)O)NC(=O)[C@H](CC(=O)O)NC(=O)[C@@H]1CCCN1C(=O)CCNC(=O)c1ccc2c(c1)C(=O)OC21c2ccc(O)cc2Oc2cc(O)ccc21)C(=O)N[C@@H](CC(=O)O)C(=O)N[C@@H](C)C(=O)N[C@@H](CC(C)C)C(=O)N[C@@H](CO)C(=O)N[C@@H](CC(=O)O)C(=O)N[C@@H](CCO)C(=O)N[C@@H](Cc1ccccc1)C(=O)N[C@H](C(=O)N[C@@H](CO)C(N)=O)[C@@H](C)O [HSE (5FAM)] ({5FAM-βAla}-PDDAIDALSD[hSer]FTS-NH2) when you can.
Resp: 7.48

Req: Dear colleague, please send me the reported Kd for CCC[C@H](NC(=O)[C@H](CC(C)C)NC(=O)[C@H](C)NC(=O)[C@H](CC(=O)O)NC(=O)[C@@H](NC(=O)[C@H](C)NC(=O)[C@H](CC(=O)O)NC(=O)[C@H](CC(=O)O)NC(=O)[C@@H]1CCCN1C(=O)CCNC(=O)c1ccc2c(c1)C(=O)OC21c2ccc(O)cc2Oc2cc(O)ccc21)[C@@H](C)CC)C(=O)N[C@@H](CC(=O)O)C(=O)N[C@@H](CC(=O)O)C(=O)N[C@@H](Cc1ccccc1)C(=O)N[C@H](C(=O)N[C@@H](CO)C(N)=O)[C@@H](C)O [NVL (5FAM)] ({5FAM-βAla}-PDDAIDAL[Nva]DDFTS-NH2) when you can.
Resp: 8.56
